Test system: MILI (PIWIL2) piRISC loaded with piRNA #1 (26 nt);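 also: 1 nM active piRISC with 0.1 nM target library at 33 °C single turnover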
Assay: pre-steady-state target cleavage rate (min^-1); guide: piRNA #1 5'p-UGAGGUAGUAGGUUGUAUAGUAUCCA; MIWI and MILI are mouse PIWI proteins and EfPiwi is from a freshwater sponge; tags in brackets are library labels; higher = faster piRNA-guided slicing of the target
Conditions: auxiliary factor: 500 nM mouse GTSF1
Give true when the value for pre-steady-state target cleavage rate is at least 0.07. Give false when it is less.

seqString	group
GGAGACCAUAGUAUACAACCUAGUACCUCA	false
GGAGACCUAUGAUUACUACCUACUACCUCA	false
GGAGACCAUACUAAACAACCAACUACCUCA	false
GGAGACCAUACAAUACAACCUACAACCUCA	true
GGAGACCUAACAUAUACAACCUACUACCUCA	false
GGAGACGAUACUAAACAACCUACUACCUCA	true
GGAGACCUUACUAAACAACCUACUACCUCA	true
